molecular target: melanocortin-4 receptor (Homo sapiens, UniProt P32245); construct: expressed in transfected cells; host or cells: HEK293 cells (membrane preparations); test: Functional assay (cAMP fluorescence polarization, membrane based, agonistic activity); assay type: biochemical; conditions: 2 h; read-out: % activation functional assay
Sequence (P32245 whole entry): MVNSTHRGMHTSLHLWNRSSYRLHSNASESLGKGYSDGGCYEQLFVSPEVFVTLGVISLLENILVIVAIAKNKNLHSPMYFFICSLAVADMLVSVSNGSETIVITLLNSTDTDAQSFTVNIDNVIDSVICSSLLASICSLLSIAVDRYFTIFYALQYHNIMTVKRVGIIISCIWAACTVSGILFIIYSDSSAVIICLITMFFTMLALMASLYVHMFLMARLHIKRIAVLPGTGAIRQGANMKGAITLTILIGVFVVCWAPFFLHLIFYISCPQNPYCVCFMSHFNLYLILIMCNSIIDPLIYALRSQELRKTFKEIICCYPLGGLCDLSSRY
observation-type: Emax (%)
Numeric only. Scale: %

Notebook: CC(C)CCN(CCC(C)CO)C(=O)c1ccc2nc(-c3ccc(=O)[nH]c3)c(CCCN3CCCC3)n2c1 (stereo not shown) , Emax read as 0

Notebook: `CC(C)CCN(CCC(C)C)C(=O)c1ccc2nc(-c3ccc(Cl)nc3)c(CCCN3CCCC3)n2c1` , Emax read as 0

Notebook: `CC(C)CCN(CCC(C)C)C(=O)c1ccc2nc(-c3nccs3)c(CN3CCC(N)CC3)n2c1` , Emax read as 0

Notebook: `Cc1ccc(-c2nc3ccc(C(=O)N(CCC(C)C)CCC(C)C)cn3c2CCCN2CCCC2)nc1` , Emax read as 0

Notebook: `COCCOc1ccc(-c2nc3ccc(C(=O)N(CCC(C)C)CCC(C)C)cn3c2CCCN2CCCC2)cn1` , Emax read as 0

Notebook: `CNC(=O)c1ccc(-c2nc3ccc(C(=O)N(CCC(C)C)CCC(C)C)cn3c2CCCN2CCCC2)cc1` , Emax read as 0

Notebook: `CCCN(CC1CC1)C(=O)c1ccc2nc(-c3ccc(C#N)cc3)c(CCCN3CCCC3)n2c1` , Emax read as 0
